test system: SK-OV-3; experiment: Growth inhibition of human SKOV3 cells after 48 hrs by sulforhodamine B assay; format: functional; details: SK-OV-3, 48 h
Each entry below lists one item and its recorded GI50 value.

The examples below pair each entry with its known result.
C[C@H]1[C@@H](OCC(CO[C@H]2O[C@@H]3O[C@@]4(C)CC[C@H]5[C@H](C)CC[C@@H]([C@H]2C)[C@@]35OO4)OC(=O)CCC(=O)O)O[C@@H]2O[C@@]3(C)CC[C@H]4[C@H](C)CC[C@@H]1[C@@]24OO3 (some centres undefined)	27.2 µM
C[C@H]1[C@@H](OCCCO[C@H]2O[C@@H]3O[C@@]4(C)CC[C@H]5[C@H](C)CC[C@@H]([C@H]2C)[C@@]35OO4)O[C@@H]2O[C@@]3(C)CC[C@H]4[C@H](C)CC[C@@H]1[C@@]24OO3	> 100 µM
C[C@H]1[C@@H](OCC(=O)CO[C@H]2O[C@@H]3O[C@@]4(C)CC[C@H]5[C@H](C)CC[C@@H]([C@H]2C)[C@@]35OO4)O[C@@H]2O[C@@]3(C)CC[C@H]4[C@H](C)CC[C@@H]1[C@@]24OO3	15.8 µM

From here, focus on the item given below.
Which GI50 value is on record for C[C@H]1[C@@H](OCCO[C@H]2O[C@@H]3O[C@@]4(C)CC[C@H]5[C@H](C)CC[C@@H]([C@H]2C)[C@@]35OO4)O[C@@H]2O[C@@]3(C)CC[C@H]4[C@H](C)CC[C@@H]1[C@@]24OO3 ?
0.798 µM

====

Each entry below lists one item and its recorded GI50 value.
test system: MDA-MB-231; test: Growth inhibition of human MDA-MB-231 cells after 48 hrs by sulforhodamine B assay; type: functional; conditions: MDA-MB-231, 48 h
Numbers only; they are read as µM.

The examples below pair each entry with its known result.
C[C@H]1[C@H](OCCO[C@H]2O[C@@H]3O[C@@]4(C)CC[C@H]5[C@H](C)CC[C@@H]([C@H]2C)[C@@]35OO4)O[C@@H]2O[C@@]3(C)CC[C@H]4[C@H](C)CC[C@@H]1[C@@]24OO3	0.534
C[C@H]1[C@H](OCCCCO[C@H]2O[C@@H]3O[C@@]4(C)CC[C@H]5[C@H](C)CC[C@@H]([C@H]2C)[C@@]35OO4)O[C@@H]2O[C@@]3(C)CC[C@H]4[C@H](C)CC[C@@H]1[C@@]24OO3	5.07
C[C@H]1[C@@H](OCCCO[C@H]2O[C@@H]3O[C@@]4(C)CC[C@H]5[C@H](C)CC[C@@H]([C@H]2C)[C@@]35OO4)O[C@@H]2O[C@@]3(C)CC[C@H]4[C@H](C)CC[C@@H]1[C@@]24OO3	7.34

Which GI50 value is on record for C=C1[C@@H](OCCCO[C@H]2O[C@@H]3O[C@@]4(C)CC[C@H]5[C@H](C)CC[C@@H](C2=C)[C@@]35OO4)O[C@@H]2O[C@@]3(C)CC[C@H]4[C@H](C)CC[C@@H]1[C@@]24OO3 ?
13.1

Which GI50 value is on record for C[C@H]1[C@@H](O[C@H]2CC[C@H](O[C@H]3O[C@@H]4O[C@@]5(C)CC[C@H]6[C@H](C)CC[C@@H]([C@H]3C)[C@@]46OO5)CC2)O[C@@H]2O[C@@]3(C)CC[C@H]4[C@H](C)CC[C@@H]1[C@@]24OO3 ?
0.52

Which GI50 value is on record for C[C@H]1[C@@H](O[C@H]2CC[C@@H](O[C@H]3O[C@@H]4O[C@@]5(C)CC[C@H]6[C@H](C)CC[C@@H]([C@H]3C)[C@@]46OO5)CC2)O[C@@H]2O[C@@]3(C)CC[C@H]4[C@H](C)CC[C@@H]1[C@@]24OO3 ?
0.092

Which GI50 value is on record for C[C@H]1[C@@H](O[C@@H](C)CO[C@H]2O[C@@H]3O[C@@]4(C)CC[C@H]5[C@H](C)CC[C@@H]([C@H]2C)[C@@]35OO4)O[C@@H]2O[C@@]3(C)CC[C@H]4[C@H](C)CC[C@@H]1[C@@]24OO3 ?
0.08

====

Each entry below lists one item and its recorded GI50 value.
system: NCI/ADR-RES; experiment: Growth inhibition of human NCI/ADR-RES cells after 48 hrs by sulforhodamine B assay; format: functional
Numbers only; they are read as nM.

C[C@H]1[C@@H](O[C@@H](C)CO[C@H]2O[C@@H]3O[C@@]4(C)CC[C@H]5[C@H](C)CC[C@@H]([C@H]2C)[C@@]35OO4)O[C@@H]2O[C@@]3(C)CC[C@H]4[C@H](C)CC[C@@H]1[C@@]24OO3	264

Which GI50 is reported with NCI/ADR-RES for this entry: C[C@H]1[C@@H](OCC(=O)CO[C@H]2O[C@@H]3O[C@@]4(C)CC[C@H]5[C@H](C)CC[C@@H]([C@H]2C)[C@@]35OO4)O[C@@H]2O[C@@]3(C)CC[C@H]4[C@H](C)CC[C@@H]1[C@@]24OO3 ?
40

====

Each entry below lists one item and its recorded pIC50 value.
test system: Plasmodium falciparum; assay: Antimalarial activity after 72 hrs against chloroquine-resistant Plasmodium falciparum W2 infected erythrocytes by LDH assay; format: functional, organism-based; details: W2, 72 h
Please keep in mind that pIC50 is minus log10 of the molar concentration; only the number is needed.

The examples below pair each entry with its known result.
C[C@H]1[C@@H](OCC(O)CO[C@@H]2C[C@@H]3CC[C@@H](C)[C@@H]4CC[C@@]5(C)OO[C@@]34[C@H](O2)O5)O[C@@H]2O[C@@]3(C)CC[C@H]4[C@H](C)CC[C@@H]1[C@@]24OO3 (some centres undefined)	5.92
C[C@H]1[C@@H](O[C@H]2CC[C@@H](O[C@H]3O[C@@H]4O[C@@]5(C)CC[C@H]6[C@H](C)CC[C@@H]([C@H]3C)[C@@]46OO5)CC2)O[C@@H]2O[C@@]3(C)CC[C@H]4[C@H](C)CC[C@@H]1[C@@]24OO3	5.10
C[C@H]1[C@H](OCCCCO[C@H]2O[C@@H]3O[C@@]4(C)CC[C@H]5[C@H](C)CC[C@@H]([C@H]2C)[C@@]35OO4)O[C@@H]2O[C@@]3(C)CC[C@H]4[C@H](C)CC[C@@H]1[C@@]24OO3	4.85

From here, focus on the item given below.
Which pIC50 value is on record for C=C1[C@@H](OCCCO[C@H]2O[C@@H]3O[C@@]4(C)CC[C@H]5[C@H](C)CC[C@@H](C2=C)[C@@]35OO4)O[C@@H]2O[C@@]3(C)CC[C@H]4[C@H](C)CC[C@@H]1[C@@]24OO3 ?
5.29

====

Each entry below lists one item and its recorded CC50 at 48 h value.
test: Cytotoxicity against african green monkey Vero cells after 48 hrs by neutral red assay; format: cell-based; conditions: chlorocebus sabaeus, read-out: TC50

C[C@H]1[C@H](OCCO[C@H]2O[C@@H]3O[C@@]4(C)CC[C@H]5[C@H](C)CC[C@@H]([C@H]2C)[C@@]35OO4)O[C@@H]2O[C@@]3(C)CC[C@H]4[C@H](C)CC[C@@H]1[C@@]24OO3	> 800 µM
C[C@H]1[C@@H](O[C@H]2O[C@@H]3O[C@@]4(C)CC[C@H]5[C@H](C)CC[C@@H]([C@H]2C)[C@@]35OO4)O[C@@H]2O[C@@]3(C)CC[C@H]4[C@H](C)CC[C@@H]1[C@@]24OO3	> 864 µM
C=C1[C@@H](OCCCO[C@H]2O[C@@H]3O[C@@]4(C)CC[C@H]5[C@H](C)CC[C@@H](C2=C)[C@@]35OO4)O[C@@H]2O[C@@]3(C)CC[C@H]4[C@H](C)CC[C@@H]1[C@@]24OO3	> 806 µM
C[C@H]1[C@H](O[C@H]2O[C@@H]3O[C@@]4(C)CC[C@H]5[C@H](C)CC[C@@H]([C@H]2C)[C@@]35OO4)O[C@@H]2O[C@@]3(C)CC[C@H]4[C@H](C)CC[C@@H]1[C@@]24OO3	> 864 µM

From here, focus on the item given below.
Which CC50 at 48 h value is on record for C[C@H]1[C@@H](OCC(O)CO[C@@H]2C[C@@H]3CC[C@@H](C)[C@@H]4CC[C@@]5(C)OO[C@@]34[C@H](O2)O5)O[C@@H]2O[C@@]3(C)CC[C@H]4[C@H](C)CC[C@@H]1[C@@]24OO3 (stereo not given in full) ?
> 7620 µM

====

test: Growth inhibition of human Hs 578T cells after 48 hrs by sulforhodamine B assay; format: functional
Each entry below lists one item and its recorded GI50 value.

C[C@H]1[C@@H](O[C@H]2CC[C@H](O[C@H]3O[C@@H]4O[C@@]5(C)CC[C@H]6[C@H](C)CC[C@@H]([C@H]3C)[C@@]46OO5)CC2)O[C@@H]2O[C@@]3(C)CC[C@H]4[C@H](C)CC[C@@H]1[C@@]24OO3	63 nM

Which GI50 value is on record for C[C@H]1[C@@H](OCC(O)CO[C@@H]2C[C@@H]3CC[C@@H](C)[C@@H]4CC[C@@]5(C)OO[C@@]34[C@H](O2)O5)O[C@@H]2O[C@@]3(C)CC[C@H]4[C@H](C)CC[C@@H]1[C@@]24OO3 (stereo partly specified) ?
12500 nM

Which GI50 value is on record for C[C@H]1[C@@H](OCC(=O)CO[C@H]2O[C@@H]3O[C@@]4(C)CC[C@H]5[C@H](C)CC[C@@H]([C@H]2C)[C@@]35OO4)O[C@@H]2O[C@@]3(C)CC[C@H]4[C@H](C)CC[C@@H]1[C@@]24OO3 ?
16200 nM

Which GI50 value is on record for C=C1[C@@H](OCCCO[C@H]2O[C@@H]3O[C@@]4(C)CC[C@H]5[C@H](C)CC[C@@H](C2=C)[C@@]35OO4)O[C@@H]2O[C@@]3(C)CC[C@H]4[C@H](C)CC[C@@H]1[C@@]24OO3 ?
74 nM

Which GI50 value is on record for C[C@H]1[C@@H](O[C@@H](C)CO[C@H]2O[C@@H]3O[C@@]4(C)CC[C@H]5[C@H](C)CC[C@@H]([C@H]2C)[C@@]35OO4)O[C@@H]2O[C@@]3(C)CC[C@H]4[C@H](C)CC[C@@H]1[C@@]24OO3 ?
21 nM

Which GI50 value is on record for COCC(CO[C@H]1O[C@@H]2O[C@@]3(C)CC[C@H]4[C@H](C)CC[C@@H]([C@H]1C)[C@@]24OO3)O[C@H]1O[C@@H]2O[C@@]3(C)CC[C@H]4[C@H](C)CC[C@@H]([C@H]1C)[C@@]24OO3 (stereo partly specified) ?
74 nM
